Task for the reader: assign each of the following molecules its reported IC50.
Target: YSK4 (Homo sapiens (Human), UniProt Q56UN5)
Sequence (Q56UN5 whole entry): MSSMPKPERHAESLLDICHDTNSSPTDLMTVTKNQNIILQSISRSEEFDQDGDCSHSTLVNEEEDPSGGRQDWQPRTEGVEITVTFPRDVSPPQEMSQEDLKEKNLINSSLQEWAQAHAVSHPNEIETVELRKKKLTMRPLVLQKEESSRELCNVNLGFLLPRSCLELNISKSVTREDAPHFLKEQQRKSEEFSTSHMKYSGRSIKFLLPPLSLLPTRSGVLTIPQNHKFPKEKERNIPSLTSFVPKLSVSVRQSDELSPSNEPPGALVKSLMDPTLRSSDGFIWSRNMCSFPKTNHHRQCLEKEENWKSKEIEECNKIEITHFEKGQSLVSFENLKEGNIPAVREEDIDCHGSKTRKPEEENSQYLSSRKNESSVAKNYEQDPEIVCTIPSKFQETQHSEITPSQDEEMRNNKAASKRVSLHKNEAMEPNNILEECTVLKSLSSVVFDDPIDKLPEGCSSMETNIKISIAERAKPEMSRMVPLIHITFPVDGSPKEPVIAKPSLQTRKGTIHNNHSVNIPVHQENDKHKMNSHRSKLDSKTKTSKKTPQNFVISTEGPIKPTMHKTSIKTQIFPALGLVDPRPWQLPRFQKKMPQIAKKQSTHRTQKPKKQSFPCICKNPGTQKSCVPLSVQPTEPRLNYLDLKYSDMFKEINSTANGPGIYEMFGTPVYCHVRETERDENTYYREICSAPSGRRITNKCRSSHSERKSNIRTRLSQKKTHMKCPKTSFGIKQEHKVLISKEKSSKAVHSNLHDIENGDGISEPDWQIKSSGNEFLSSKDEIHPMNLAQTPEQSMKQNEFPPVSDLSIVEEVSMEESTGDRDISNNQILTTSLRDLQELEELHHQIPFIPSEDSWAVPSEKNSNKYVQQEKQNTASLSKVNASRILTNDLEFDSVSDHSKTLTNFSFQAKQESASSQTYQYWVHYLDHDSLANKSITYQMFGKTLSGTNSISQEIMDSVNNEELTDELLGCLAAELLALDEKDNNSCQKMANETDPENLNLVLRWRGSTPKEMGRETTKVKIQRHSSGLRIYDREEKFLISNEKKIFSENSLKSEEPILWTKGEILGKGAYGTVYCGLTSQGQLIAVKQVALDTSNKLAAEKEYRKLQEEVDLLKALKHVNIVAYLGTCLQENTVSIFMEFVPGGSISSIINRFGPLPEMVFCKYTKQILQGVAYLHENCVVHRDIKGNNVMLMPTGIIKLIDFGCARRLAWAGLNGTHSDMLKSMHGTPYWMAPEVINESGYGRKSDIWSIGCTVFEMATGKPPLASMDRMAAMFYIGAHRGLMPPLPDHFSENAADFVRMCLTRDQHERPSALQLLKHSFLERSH
Where a name gives a salt, the structure may show the parent alone.

Recorded IC50, per entry:
Cc1ccc(C(=O)Oc2ccc(C(CN)C(=O)Nc3ccc(-c4cn[nH]c4)cc3)cc2)c(C)c1 (stereo not drawn) [Compound 10, dihydrochloride]	> 10 µM
NCC(C(=S)Nc1ccc(-c2cn[nH]c2)cc1)c1ccccc1 (stereo not drawn) [Compound 14, dihydrochloride]	> 1 µM
Cc1ccc(C(=O)OCc2ccc(C(CN)C(=O)Nc3ccc(-c4cn[nH]c4)cc3)cc2)c(C)c1 (stereo not drawn) [Compound 12, dihydrochloride]	> 1 µM
NCC(OCc1ccccc1)C(=O)Nc1ccc(-c2cn[nH]c2)cc1 (stereo not drawn)	> 10 µM
NCC(NC(=S)Nc1ccc(-c2cn[nH]c2)cc1)c1ccccc1 (stereo not drawn) [Compound 15, dihydrochloride]	> 10 µM

INPUT: Notebook entry, YSK4 (Homo sapiens (Human), UniProt Q56UN5) assay: IC50 of NCCN(Cc1ccc(F)cc1)C(=O)c1ccc(-c2cn[nH]c2)cc1 [Compound 17, dihydrochloride] = ?
OUTPUT: > 10 µM
